Biological target: human TLR9 (Homo sapiens, UniProt Q9NR96)
Sequence (Q9NR96 26-1032): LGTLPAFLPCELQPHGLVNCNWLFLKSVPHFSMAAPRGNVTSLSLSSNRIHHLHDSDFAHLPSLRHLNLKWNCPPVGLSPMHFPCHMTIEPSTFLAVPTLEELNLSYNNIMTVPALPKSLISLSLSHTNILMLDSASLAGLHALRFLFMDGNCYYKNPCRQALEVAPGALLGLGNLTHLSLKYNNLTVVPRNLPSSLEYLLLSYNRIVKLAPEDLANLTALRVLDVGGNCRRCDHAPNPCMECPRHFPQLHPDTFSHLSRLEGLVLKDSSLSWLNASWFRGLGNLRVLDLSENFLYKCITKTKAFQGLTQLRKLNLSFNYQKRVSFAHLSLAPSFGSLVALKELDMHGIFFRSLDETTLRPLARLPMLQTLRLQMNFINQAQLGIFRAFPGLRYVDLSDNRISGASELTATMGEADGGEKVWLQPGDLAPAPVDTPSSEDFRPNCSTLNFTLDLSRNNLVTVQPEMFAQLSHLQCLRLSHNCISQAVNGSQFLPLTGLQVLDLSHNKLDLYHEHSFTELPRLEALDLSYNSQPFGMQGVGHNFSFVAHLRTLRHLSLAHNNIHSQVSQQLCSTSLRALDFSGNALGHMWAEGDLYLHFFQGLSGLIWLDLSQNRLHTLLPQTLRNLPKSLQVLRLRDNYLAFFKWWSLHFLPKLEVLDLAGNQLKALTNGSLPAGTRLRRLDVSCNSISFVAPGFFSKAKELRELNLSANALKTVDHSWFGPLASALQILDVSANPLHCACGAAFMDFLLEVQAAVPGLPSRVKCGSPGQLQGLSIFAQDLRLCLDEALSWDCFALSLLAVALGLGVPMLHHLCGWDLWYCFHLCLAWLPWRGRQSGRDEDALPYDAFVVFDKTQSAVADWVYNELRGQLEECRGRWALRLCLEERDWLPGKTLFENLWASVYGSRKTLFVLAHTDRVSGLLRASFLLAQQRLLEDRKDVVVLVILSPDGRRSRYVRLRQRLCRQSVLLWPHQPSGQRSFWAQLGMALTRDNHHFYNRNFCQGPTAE
Experiment: TLR9 inhibition reporter assay (HEK-Blue cells, SEAP reporter, ODN2006 stimulation)
Details: HEK-Blue cells overexpressing human TLR9, SEAP reporter, ODN2006 5 nM
observable: pIC50
One number for each entry, as −log10 of the molar value.

>>> df
                                   compound  observable  endpoint_value
0  COc1cc(-c2[nH]c3ccc(C4CCCN(C(C)C)C4)cc3c2C(C)C)cn2ncnc12 (centres unmarked) [Example 236]       pIC50            5.90
1  CNC(=O)CN1CCCC(c2ccc3[nH]c(-c4cc(OC)c5ncnn5c4)c(C(C)C)c3c2)C1 (centres unmarked) [Example 223]       pIC50            5.13

Need pIC50 for each of these compounds.
1. CNCC(=O)N1CCOC(c2ccc3[nH]c(-c4cc(OC)c5ncnn5c4)c(C(C)C)c3c2)C1 (centres unmarked) [Example 342]
2. CNCCN1CCCC(c2ccc3[nH]c(-c4ccnc(C)c4)c(C(C)C)c3c2)C1 (centres unmarked) [Example 255]
3. CNC(=O)CN1CCCC(c2ccc3[nH]c(-c4cc(OC)c5ncnn5c4)c(C(C)C)c3c2)C1 (centres unmarked) [Example 228]
4. CNCCN1CCCC(c2ccc3[nH]c(-c4ccc(OC)c(OC)c4)c(C(C)C)c3c2)C1 (centres unmarked) [Example 254]

Out:
1: 5.76; 2: 6.80; 3: 5.31; 4: 6.13

// batch mode: one pIC50 value per listed entry
1. COc1ccc(-c2[nH]c3ccc(C4CCC(O)CC4)cc3c2C(C)C)cc1OC (centres unmarked) [Example 451]
2. COc1cc(-c2[nH]c3ccc(C4CCC(NS(C)(=O)=O)CC4)cc3c2C(C)C)cn2ncnc12 (centres unmarked) [Example 117]

Out:
4.71
4.85
